# MEASUREMENT_PROTOCOL: NCI Yeast Anticancer Drug Screen. Data for the cln2 rad14 strain (AID 165);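 further: 0% = growth equal to vehicle treated cultures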
# EXPERIMENTAL_CONTEXT: S. cerevisiae cln2 rad14 strain, at 50.0 µM, active compounds read high
About 79,000 compounds went through this panel and 15% of them were active in at least one assay; those are over-represented in the sample as a whole.
MEASURED_PROPERTY: growth inhibition (%)
Number in %, nothing else.

Consider the reported growth inhibition for these compounds:
>>> number("Cc1nc(N)c2c(ncn2C2OC(CO)C(O)C2O)n1 (stereo unspecified)")
-8.8
>>> number("CCOc1ccc2[nH]c(C)c(CC(=O)O)c2c1")
-16.4
>>> number("O=[N+]([O-])C(C=Nc1ccccc1)C=Nc1ccccc1 (stereo unspecified)")
-2.25
>>> number("NC(=S)N/N=C\\CC(O)(C(F)(F)F)C(F)(F)F")
0.5

For record "COc1cc(OC)cc(N(C)Cc2cnc3nc(N)nc(N)c3c2C)c1" the listed growth inhibition is 11.3

Value of measured growth inhibition for the entry CCN(CC)CCCC(C)NCc1ccnc2cc(Cl)ccc12 (stereo unspecified) : -21.4

So, COCC1OC(OC2(COC)OC(COC)C(OC)C2OC)C(OC)C(OC)C1OC (stereo unspecified) ? Its growth inhibition was -34.2

----------
# MEASUREMENT_PROTOCOL: NCI Yeast Anticancer Drug Screen. Data for the rad50 strain (AID 155);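 further: 0% = growth of vehicle-only cultures of the same strain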
# EXPERIMENTAL_CONTEXT: S. cerevisiae rad50 strain growth inhibition; at 50.0 µM; active compounds read high
The panel holds about 79,000 compounds, 15% with a hit somewhere; the sample as a whole holds those more often.
Entries and their growth inhibition values follow.
A number alone suffices; assume %.

Take a look at these entries with their results.
>>> number("O=C1c2cc(Cl)ccc2NC(O)c2cccn21 (configuration not stated)")
3.45
>>> number("N#CC(NC12CC3CC(CC(C3)C1)C2)c1ccccc1C(F)(F)F (configuration not stated)")
-18.6
>>> number("CC(=O)OC1OC(COC(=O)c2ccccc2)C(OC(=O)c2ccccc2)C1OC(=O)c1ccccc1 (configuration not stated)")
-60.6
>>> number("O=C(CCC(O)(C(=O)c1ccccc1)c1ccccc1)c1ccccc1 (configuration not stated)")
9.25
>>> number("COc1ccc(C)cc1N=NC1C(=O)N(C(=O)CC(=O)Nc2ccccc2OC)N=C1c1ccccc1 (configuration not stated)")
12.8
>>> number("Cn1cnc(N2CCCC2)c(C#N)c1=S")
3.45
>>> number("COc1ccc(C(=O)COC(C)(C)C)cc1")
-8.55
>>> number("Cc1ccc(NC(=S)NC(=O)c2cccc([N+](=O)[O-])c2)cc1C")
1.8
>>> number("CCCCC(CCCC)NCC(C)OC(=O)c1ccc(N)cc1 (configuration not stated)")
20.6
>>> number("Cc1ccc(NC(=O)C(C)C)cc1")
-14

The reported growth inhibition of the compound "O=C1c2ccccc2C(=O)N1CCNc1ccccc1[N+](=O)[O-]" was -9.25

Summary for this compound, "O=S1(=O)OCCOS(=O)(=O)C1S(=O)(=O)c1cccc2ccccc12" : growth inhibition is -19.2

----------
Listed below: growth inhibition values for each entry.
# MEASUREMENT_PROTOCOL: NCI Yeast Anticancer Drug Screen. Data for the mec2-1 strain (AID 157)
# EXPERIMENTAL_CONTEXT: S. cerevisiae mec2-1 strain, at 50.0 µM, active compounds read high
About 79,000 compounds went through this panel and 15% of them were active in at least one assay; those are over-represented in the sample as a whole.
Only the number, expressed in %, is required.

Example entries begin here.
>>> number("Nc1cc([N+](=O)[O-])ccc1-c1ccc([N+](=O)[O-])cc1")
-2.2
>>> number("CC1(c2cccc3c2C2(O)C=CC4(CCC32)OCCO4)OCCO1 (centres undefined)")
-41.2
>>> number("COC(=O)c1ccccc1O")
2.25
>>> number("CC(C)(C)C1CCC2c3c([nH]c4ccccc34)C3C(=O)N(c4ccc(Br)cc4)C(=O)C3C2C1 (centres undefined)")
11.8
>>> number("CNC(=S)SSSC(=S)NC")
-1.9
>>> number("CC12CCCCC1C1=C(CCCC1)CC2 (centres undefined)")
-4.95
>>> number("CCC[C@H](C)[C@H]1NC(=O)[C@@H](NC(=O)[C@@H](CC(C)C)N(C)C(=O)C2CCCN2C(=O)[C@H](C)O)[C@@H](C)OC(=O)[C@H](CC(C)C)N(C)C(=O)[C@@H]2CCCN2C(=O)[C@H](CC(C)C)NC(=O)[C@@H](C)C(=O)[C@H](C(C)C)OC(=O)C[C@@H]1O (some centres undefined)")
9.35
>>> number("OCC(O)C(O)C(OC1OC(CO)C(O)C(O)C1O)C(O)CO (centres undefined)")
37.8

Please examine the following record next.
Reported growth inhibition for "CCCc1nc2c([nH]1)c(=O)n(C)c(=O)n2C" was -14.3
